# target_or_test_system: CAT-1 (carnitine acyltransferase 1) (Rattus norvegicus, UniProt Q63704)
# Construct: This preparation is used as the isolated mitochondrial preparation; from tissue; host or cells: rat heart (atria removed), isolated mitochondria
# Sequence (Q63704 1-772): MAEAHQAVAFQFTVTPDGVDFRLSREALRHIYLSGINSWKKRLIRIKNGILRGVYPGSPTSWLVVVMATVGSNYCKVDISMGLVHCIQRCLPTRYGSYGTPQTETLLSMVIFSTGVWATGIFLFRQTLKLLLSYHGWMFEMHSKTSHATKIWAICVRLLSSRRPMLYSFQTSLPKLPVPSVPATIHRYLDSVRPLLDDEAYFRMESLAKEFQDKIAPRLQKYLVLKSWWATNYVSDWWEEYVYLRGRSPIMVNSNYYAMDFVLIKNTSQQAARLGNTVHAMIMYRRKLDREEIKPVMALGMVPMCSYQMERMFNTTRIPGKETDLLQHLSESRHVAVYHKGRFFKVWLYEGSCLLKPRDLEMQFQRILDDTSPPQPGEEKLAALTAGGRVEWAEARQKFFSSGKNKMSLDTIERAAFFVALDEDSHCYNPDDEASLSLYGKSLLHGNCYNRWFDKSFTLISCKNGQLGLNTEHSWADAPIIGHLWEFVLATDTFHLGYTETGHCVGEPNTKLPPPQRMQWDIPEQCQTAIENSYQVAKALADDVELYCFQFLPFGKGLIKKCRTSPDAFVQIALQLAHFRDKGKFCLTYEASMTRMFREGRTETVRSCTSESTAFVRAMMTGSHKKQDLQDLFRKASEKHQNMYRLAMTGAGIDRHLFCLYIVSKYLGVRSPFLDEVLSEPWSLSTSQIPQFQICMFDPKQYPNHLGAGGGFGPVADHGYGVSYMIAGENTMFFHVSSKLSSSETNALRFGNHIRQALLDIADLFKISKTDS
# assay_procedure: Secondary Screen--Inhibition of CAT-1 in intact cardiac myocytes (hypoxia-induced increase in long-chain acylcarnitines)
# Format: cell-based
# test_parameters: isolated rat cardiac myocytes, 50% inhibition of hypoxia-induced increase in long-chain acylcarnitines
pIC50: −log10 of the molar value. Where a name gives a salt, the structure may show the parent alone.
Class definitions on pIC50: low: < 5; medium: ≥ 5 and < 6; high: ≥ 6

>  <molecule>
O=C(O)C(=O)c1ccc(OC/C=C/c2ccc3ccccc3c2)cc1 [Example 96]

>  <target_or_test_system>
CAT-1 (carnitine acyltransferase 1) (Rattus norvegicus, UniProt Q63704)

>  <group>
medium

$$$$
>  <molecule>
CCC(C)(C)C(=O)OCc1cccc(C)c1OCCOc1ccc(/C(=N/OC)C(=O)O)cc1 [Example 304]

>  <target_or_test_system>
CAT-1 (carnitine acyltransferase 1) (Rattus norvegicus, UniProt Q63704)

>  <group>
medium

$$$$
>  <molecule>
N[C@H](C(=O)O)c1ccc(OCCOC2CCCCCCC2)cc1 [Example 18, hydrochloride]

>  <target_or_test_system>
CAT-1 (carnitine acyltransferase 1) (Rattus norvegicus, UniProt Q63704)

>  <group>
medium

$$$$
>  <molecule>
CCCc1c(OCCCOc2ccc(C(=O)C(=O)O)cc2)ccc(C(C)=O)c1O [Example 257]

>  <target_or_test_system>
CAT-1 (carnitine acyltransferase 1) (Rattus norvegicus, UniProt Q63704)

>  <group>
high

$$$$
>  <molecule>
CO/N=C(/C(=O)O)c1ccc(OCCOc2ccc3ccccc3c2)s1 [Example 306, hydrate]

>  <target_or_test_system>
CAT-1 (carnitine acyltransferase 1) (Rattus norvegicus, UniProt Q63704)

>  <group>
medium

$$$$
>  <molecule>
O=C(O)C(=O)c1ccc(OCCCCOc2ccc3ccccc3c2)cc1 [Example 88]

>  <target_or_test_system>
CAT-1 (carnitine acyltransferase 1) (Rattus norvegicus, UniProt Q63704)

>  <group>
medium

$$$$
>  <molecule>
O=C(O)C(=O)c1ccc(OCCOC2CCCCCCC2)cc1 [Example 101]

>  <target_or_test_system>
CAT-1 (carnitine acyltransferase 1) (Rattus norvegicus, UniProt Q63704)

>  <group>
low

$$$$
>  <molecule>
C[N+](C)(C)CCOC(=O)C(=O)c1ccc(OCCOc2ccc3ccccc3c2)s1 [Example 7]

>  <target_or_test_system>
CAT-1 (carnitine acyltransferase 1) (Rattus norvegicus, UniProt Q63704)

>  <group>
high

$$$$
>  <molecule>
O=C(O)C(=O)c1ccc(OCCOC2CCCCC2)cc1 [Example 99]

>  <target_or_test_system>
CAT-1 (carnitine acyltransferase 1) (Rattus norvegicus, UniProt Q63704)

>  <group>
low

$$$$
>  <molecule>
CN(C)CCOC(=O)C(=O)c1ccc(OCCOc2ccc3ccccc3c2)s1 [Example 6]

>  <target_or_test_system>
CAT-1 (carnitine acyltransferase 1) (Rattus norvegicus, UniProt Q63704)

>  <group>
high

$$$$
>  <molecule>
O=C(O)C(=O)c1ccc(C(=O)NCCOc2ccc3ccccc3c2)cc1 [Example 177]

>  <target_or_test_system>
CAT-1 (carnitine acyltransferase 1) (Rattus norvegicus, UniProt Q63704)

>  <group>
low

$$$$
>  <molecule>
CC(C)c1nc(-c2ccccc2)n(-c2ccc(F)cc2)c1/C=C/COc1ccc(C(=O)C(=O)O)cc1 [Example 243]

>  <target_or_test_system>
CAT-1 (carnitine acyltransferase 1) (Rattus norvegicus, UniProt Q63704)

>  <group>
medium

$$$$
>  <molecule>
O=C(O)/C(=N\O)c1ccc(OCCOc2ccc3ccccc3c2)cc1 [Example 301]

>  <target_or_test_system>
CAT-1 (carnitine acyltransferase 1) (Rattus norvegicus, UniProt Q63704)

>  <group>
medium

$$$$
